Header: IC50 / MERTK (Homo sapiens) / multiple publications

Inquiry: Please report the recorded IC50 for C[C@@H](CC(F)(F)F)Nc1ncc2c(-c3cnn(C(C)(C)C(=O)N4CC5(COC5)C4)c3)cc([C@H]3CC[C@H](O)CC3)n2n1 .
Reply text: ≤ 100 nM

Inquiry: Same question, CC(C)n1cc(C(=O)Nc2ccc(Oc3ccnc4cc(OCCO)c5c(c34)OCCO5)c(F)c2)c(=O)n(-c2ccc(F)cc2)c1=O this time
Reply text: ≤ 50 nM

Inquiry: Same question, COC[C@H](C)Nc1ncc2c(-c3ccc(CN4CCN(c5nccc(C)n5)CC4)cc3)cc([C@H]3CC[C@H](O)CC3)n2n1 this time
Reply text: ≤ 100 nM

Inquiry: Same question, CCCCC[C@H](C)Nc1ncc2c([C@H]3CC[C@@H](C(=O)O)CC3)cc([C@H]3CC[C@H](O)CC3)n2n1 this time
Reply text: ≤ 100 nM

Inquiry: Same question, CC(C)OC[C@H](C)Nc1ncc2c(-c3ccc(CN4CCOCC4)cc3)cc([C@H]3CC[C@H](O)CC3)n2n1 this time
Reply text: ≤ 100 nM

Inquiry: Same question, Cn1cc(-c2cnc(N)c(C(=O)N[C@@H]3CCN(C(=O)Oc4cc(Cl)cc(Cl)c4)C3)c2)cn1 this time
Reply text: 100 to 1000 nM

* * *

Header: IC50 / MERTK (Homo sapiens, UniProt Q12866) / multiple publications

Inquiry: Please report the recorded IC50 for COC[C@H](C)Nc1ncc2c(-c3ccnc(N4CCOC(C(C)(C)O)C4)c3)cc([C@H]3CC[C@H](O)CC3)n2n1 (stereo partly shown) .
Reply text: ≤ 100 nM

Inquiry: Same question, CN1CCN(Cc2cccc(-c3ccc(C(=O)N4CC[C@@H](NC(=O)c5cc(-c6cnn(C)c6)cnc5N)C4)cc3)c2)CC1 this time
Reply text: 100 to 1000 nM

Inquiry: Same question, COC[C@H](C)Nc1ncc2c(-c3cnn(C(C)(C)C(=O)N4CCS(=O)(=O)CC4)c3)cc([C@H]3CC[C@H](O)CC3)n2n1 this time
Reply text: ≤ 100 nM

Inquiry: Same question, COc1cc2nccc(Oc3ccc(NC(=O)c4cn(CC5CCS(=O)(=O)CC5)cc(-c5ccc(C)cc5)c4=O)nc3)c2cc1OC this time
Reply text: 50 nM

Inquiry: Same question, CCOc1ccn(-c2ccc(F)cc2)c(=O)c1C(=O)Nc1ccc(Oc2ncnc3cc(OC)c4c(c23)OCCO4)c(F)c1 this time
Reply text: ≤ 50 nM

Inquiry: Same question, C[C@@H](CC#N)Nc1ncc2c(OC3CCOCC3)ncc([C@H]3CC[C@H](O)CC3)c2n1 this time
Reply text: ≤ 100 nM

Inquiry: Same question, Cn1cc(-c2cnc(N)c(C(=O)N[C@@H]3CCN(C(=O)c4ccc(I)cc4)C3)c2)cn1 this time
Reply text: > 1000 nM

Inquiry: Same question, C[C@H](Nc1ncc2c(O[C@H]3C[C@@H](O)C3)ncc([C@H]3CC[C@H](O)CC3)c2n1)C(F)F this time
Reply text: ≤ 100 nM

Inquiry: Same question, COC[C@H](C)Nc1ncc2c(O[C@H]3C[C@@H](O)C3)ncc(-c3ccnnc3)c2n1 this time
Reply text: 100 to 1000 nM

Inquiry: Same question, Cn1cc(-c2cnc(N)c(C(=O)N[C@@H]3CCN(Cc4ccccc4)C3)c2)cn1 this time
Reply text: > 1000 nM

Inquiry: Same question, CN1CCC(Cc2ccc(-c3ccc(C(=O)N4CC[C@@H](NC(=O)c5cc(-c6cnn(C)c6)cnc5N)C4)cc3)cc2)CC1 this time
Reply text: 100 to 1000 nM

Inquiry: Same question, Cn1cc(-c2cnc(N)c(C(=O)N[C@@H]3CCN(C(=O)OC4CCCCCC4)C3)c2)cn1 this time
Reply text: > 1000 nM

Inquiry: Same question, C[C@@H]1CCCN1C1(C)CCc2ccc(-c3cnc4[nH]nc(-c5ccc(S(=O)(=O)C(F)(F)F)cc5)c4c3)cc2CC1 (stereo partly shown) this time
Reply text: > 1000 nM

Inquiry: Same question, COc1cc2nccc(Oc3ccc(NC(=O)c4cc(-c5ccc(C)cc5)cn(CC5CCOCC5)c4=O)nc3)c2cc1OC this time
Reply text: 8 nM

Inquiry: Same question, CN1CC=C(c2ccc(C(=O)N3CC[C@@H](NC(=O)c4cc(-c5cnn(C)c5)cnc4N)C3)cc2)CC1 this time
Reply text: > 1000 nM

Inquiry: Same question, COC[C@H](C)Nc1ncc2c(-c3cc(C)ccn3)cc([C@H]3CC[C@H](O)CC3)n2n1 this time
Reply text: ≤ 100 nM

Inquiry: Same question, CCOc1ccn(-c2ccc(F)cc2)c(=O)c1C(=O)Nc1cc(F)c(Oc2ccnc3cc(OC)c4c(c23)OCCO4)cc1Cl this time
Reply text: ≤ 50 nM

Inquiry: Same question, Cn1cc(-c2cnc(N)c(C(=O)N[C@@H]3CCN(C(=O)c4ccc(-c5cccc(CN)c5)cc4)C3)c2)cn1 this time
Reply text: 10 to 100 nM

Inquiry: Same question, COC[C@H](C)Nc1ncc2c(-c3ccc(C#N)c(F)c3)cc([C@H]3CC[C@H](O)CC3)n2n1 this time
Reply text: ≤ 100 nM

Inquiry: Same question, COC[C@H](C)Nc1ncc2c(-c3cnn(C[C@H]4CCC(=O)N4)c3)cc([C@H]3CC[C@H](O)CC3)n2n1 this time
Reply text: ≤ 100 nM

Inquiry: Same question, CN1CCC(n2cc(-c3cnc(N)c(-c4nnc(-c5c(Cl)cccc5Cl)o4)c3)cn2)CC1 this time
Reply text: < 500 nM

Inquiry: Same question, CCOc1ccn(-c2ccc(F)cc2)c(=O)c1C(=O)Nc1ccc(Oc2ncnc3cc(OCCCN4CCOCC4)c4c(c23)OCCO4)c(F)c1 this time
Reply text: ≤ 50 nM

Inquiry: Same question, CCCC(C)Nc1ncc2c(=O)n(C3CCN(C(=O)CN(C)C)CC3)cc([C@H]3CC[C@H](O)CC3)c2n1 (stereo partly shown) this time
Reply text: ≤ 100 nM

Inquiry: Same question, CCCC(C)Nc1ncc2c(NC3CCN(C)CC3)ncc([C@H]3CC[C@H](O)CC3)c2n1 (stereo partly shown) this time
Reply text: ≤ 100 nM

Inquiry: Same question, Cc1nc(C)c(CN2CC[C@@H](NC(=O)c3cc(-c4cnn(C5CCNCC5)c4)cnc3N)C2)s1 this time
Reply text: > 1000 nM

Inquiry: Same question, Cc1onc(N)c1-c1ccc(C(=O)N2CC[C@@H](NC(=O)c3cc(-c4cnn(C)c4)cnc3N)C2)cc1 this time
Reply text: > 1000 nM

Inquiry: Same question, Cn1cc(-c2cnc(N)c(C(=O)N[C@@H]3CCN(C(=O)Oc4cccc(Oc5ccccc5)c4)C3)c2)cn1 this time
Reply text: 100 to 1000 nM

Inquiry: Same question, Cn1cc(-c2cnc(N)c(C(=O)N[C@@H]3CCN(C(=O)c4ccc(-c5cnn(C6CCNCC6)c5)cc4)C3)c2)cn1 this time
Reply text: > 1000 nM

* * *

Header: IC50 / MERTK (Homo sapiens, UniProt Q12866) / multiple publications

Inquiry: Please report the recorded IC50 for C[C@H]1CCCN1C1CCc2ccc(-c3cnc4[nH]nc(-c5ccc(C(C)(C)O)c(Cl)c5)c4c3)cc2CC1 (some centres unmarked) .
Reply text: 100 to 1000 nM

Inquiry: Same question, COC[C@H](C)Nc1ncc2c(-c3cnn(C(C)(C)c4nc(C)co4)c3)cc([C@H]3CC[C@H](O)CC3)n2n1 this time
Reply text: ≤ 100 nM

Inquiry: Same question, CCCCC[C@H](C)Nc1ncc2c(NC3CCN(C)CC3)cc([C@H]3CC[C@H](O)CC3)n2n1 this time
Reply text: ≤ 100 nM

Inquiry: Same question, COC[C@H](C)Nc1ncc2c(-c3ccc(C(=O)N4CCS(=O)(=O)CC4)cc3)cc([C@H]3CC[C@H](O)CC3)n2n1 this time
Reply text: ≤ 100 nM

Inquiry: Same question, CC[C@H](C)Nc1ncc2c(NC34CCC(O)(CC3)CC4)ncc([C@H]3CC[C@H](O)CC3)c2n1 this time
Reply text: ≤ 100 nM

Inquiry: Same question, Nc1ncc(-c2cnn(C3CCN(C(=O)C4CC4)CC3)c2)cc1-c1nc(-c2ccccc2)no1 this time
Reply text: 1000 to 10000 nM

Inquiry: Same question, COC[C@H](C)Nc1ncc2c(-c3cnn(C4CCOCC4)c3)cc([C@H]3CC[C@H](O)CC3)n2n1 this time
Reply text: ≤ 100 nM

Inquiry: Same question, COC[C@H](C)Nc1ncc2c(-c3cnn(C(C)(C)C(=O)N4CCC4)c3)cc([C@H]3CC[C@H](O)CC3)n2n1 this time
Reply text: ≤ 100 nM

Inquiry: Same question, Cn1cc(-c2cnc(N)c(C(=O)N[C@@H]3CCN(C(=O)c4ccc(C(C)(C)C)cc4)C3)c2)cn1 this time
Reply text: > 1000 nM

Inquiry: Same question, COc1cc2nccc(Oc3ccc(NC(=O)c4cn(C(C)C)c(=O)n(-c5ccc(F)cc5)c4=O)cc3F)c2c2c1OCCO2 this time
Reply text: ≤ 50 nM

Inquiry: Same question, CC[C@H](C)Nc1ncc2c(C3CCN(C)CC3)ncc([C@H]3CC[C@H](O)CC3)c2n1 this time
Reply text: ≤ 100 nM

Inquiry: Same question, Cn1cc(-c2cnc(N)c(C(=O)N[C@@H]3CCN(C(=O)N4CCc5cccc(Br)c5C4)C3)c2)cn1 this time
Reply text: > 1000 nM

Inquiry: Same question, CCCCNc1ncc2c(NC3CCN(C)CC3)ncc([C@H]3CC[C@H](O)CC3)c2n1 this time
Reply text: ≤ 100 nM

Inquiry: Same question, COC[C@H](C)Nc1ncc2c(-c3cnn(C4COC4)c3)cc(-c3cccc(O)c3)n2n1 this time
Reply text: ≤ 100 nM

Inquiry: Same question, CCCC(C)Nc1ncc2c(=O)n(CCN3CCOCC3)cc([C@H]3CC[C@H](O)CC3)c2n1 (some centres unmarked) this time
Reply text: ≤ 100 nM

Inquiry: Same question, COC[C@H](C)Nc1ncc2c(-c3cnn(C4(C(=O)NC(C)C)CC4)c3)cc([C@H]3CC[C@H](O)CC3)n2n1 this time
Reply text: ≤ 100 nM

Inquiry: Same question, COC[C@H](C)Nc1ncc2c(-c3cnn(C(C)(C)c4ncc(C)o4)c3)cc(C3CCC(O)CC3)n2n1 (some centres unmarked) this time
Reply text: ≤ 100 nM

Inquiry: Same question, Cn1cc(-c2cnc(N)c(C(=O)N[C@@H]3CCN(C(=O)Oc4cccc(-c5ccc(CO)cc5)c4)C3)c2)cn1 this time
Reply text: 100 to 1000 nM

Inquiry: Same question, CCN1CCC(n2cc(-c3cnc(N)c(-c4nnc(-c5c(Cl)cccc5Cl)o4)c3)cn2)CC1 this time
Reply text: < 500 nM

Inquiry: Same question, O[C@H]1CC[C@H](c2cnc(OC3CCNCC3)c3cnc(Nc4ccccc4F)nc32)CC1 this time
Reply text: ≤ 100 nM

Inquiry: Same question, Cn1cc(-c2cnc(N)c(C(=O)N[C@@H]3CCN(C(=O)c4ccc(-c5ccsc5)cc4)C3)c2)cn1 this time
Reply text: 100 to 1000 nM

Inquiry: Same question, COC[C@H](C)Nc1ncc2c(OC3CCOCC3)ncc(-c3cccc(S(N)(=O)=O)c3)c2n1 this time
Reply text: 100 to 1000 nM

Inquiry: Same question, CN1CCN(c2ccc(C(=O)N3CC[C@@H](NC(=O)c4cc(-c5cnn(C)c5)cnc4N)C3)cc2)CC1 this time
Reply text: > 1000 nM

Inquiry: Same question, CCCC(C)Nc1ncc2c(=O)n(C3CCN(C4COC4)CC3)cc([C@H]3CC[C@H](O)CC3)c2n1 (some centres unmarked) this time
Reply text: 100 to 1000 nM

Inquiry: Same question, Cc1cc(-c2n[nH]c3ncc(-c4ccc5c(c4)CCC(N4CCCC4)CC5)cc23)ccc1C(=O)N1CCNCC1 (centres unmarked) this time
Reply text: 100 to 1000 nM

Inquiry: Same question, Cc1c(C(=O)N2CC[C@@H](NC(=O)c3cc(-c4cnn(C)c4)cnc3N)C2)oc2ccccc12 this time
Reply text: > 1000 nM

Inquiry: Same question, COc1cc2nccc(Oc3ccc(NC(=O)c4cn(C)c(C)c(-c5ccc(F)cn5)c4=O)cc3)c2nc1OC this time
Reply text: ≤ 100 nM

Inquiry: Same question, C[C@@H]1CCCN1C1(C)CCc2ccc(-c3cnc4[nH]nc(-c5ccc(C(C)(C)O)nc5)c4c3)cc2CC1 (some centres unmarked) this time
Reply text: 100 to 1000 nM

Inquiry: Same question, CC(C)(c1ccc(-c2cnc(N)c(C(=O)N[C@@H]3CCN(C(=O)c4ccc(-c5ccccc5)cc4)C3)c2)cc1)N1CCN(S(=O)(=O)c2ccccc2[N+](=O)[O-])CC1 this time
Reply text: 100 to 1000 nM
